Reported values of IC50 for individual entries
Target: Human HDAC5 (Homo sapiens)
Construct: full length with C-terminal His tag, MW=51.1 kDa; His (C); host or cells: baculovirus expression system
Sequence (Q9UQL6 656-1122 limits assumed): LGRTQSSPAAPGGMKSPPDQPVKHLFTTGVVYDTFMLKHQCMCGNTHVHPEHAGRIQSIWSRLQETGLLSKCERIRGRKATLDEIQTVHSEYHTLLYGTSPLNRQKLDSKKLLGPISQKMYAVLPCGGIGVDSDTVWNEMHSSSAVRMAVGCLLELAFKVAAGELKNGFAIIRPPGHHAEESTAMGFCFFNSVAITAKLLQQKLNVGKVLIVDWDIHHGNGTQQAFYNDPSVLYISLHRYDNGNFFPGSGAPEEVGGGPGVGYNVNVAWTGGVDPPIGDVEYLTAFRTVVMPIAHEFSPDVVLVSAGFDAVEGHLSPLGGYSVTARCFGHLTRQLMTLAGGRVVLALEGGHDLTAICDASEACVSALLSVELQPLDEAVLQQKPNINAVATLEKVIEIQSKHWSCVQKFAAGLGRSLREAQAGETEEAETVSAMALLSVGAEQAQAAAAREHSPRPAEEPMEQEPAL
Experiment: HDAC5 biochemical assay, class IIa-specific substrate
Details: read-out: HDAC Isoform IC50 (nM) 5

FC(F)(F)c1cncc(N(Cc2ccc(-c3noc(C(F)(F)F)n3)s2)c2cnccn2)n1    ≤ 10000 nM
Cc1cnc(C)c(N(Cc2ccc(-c3noc(C(F)(F)F)n3)s2)c2cnccn2)n1    ≤ 500 nM
FC(F)(F)c1nc(-c2ccc(CN(c3cnccn3)c3cc(CN4CCOCC4)ccn3)s2)no1    ≤ 10000 nM

Request: So what does the record say about IC50 for FC(F)(F)c1cnnc(N(Cc2ccc(-c3noc(C(F)(F)F)n3)s2)c2ccc(N3CCOCC3)nn2)c1 ?
Response: ≤ 10000 nM

Request: So what does the record say about IC50 for FC(F)(F)c1cnnc(N(Cc2ccc(-c3noc(C(F)(F)F)n3)s2)c2ncccc2N2CCOCC2)c1 ?
Response: ≤ 10000 nM

Request: So what does the record say about IC50 for FC(F)(F)c1ncc(N(Cc2ccc(-c3noc(C(F)(F)F)n3)s2)c2cnccn2)cn1 ?
Response: ≤ 1000 nM

Request: So what does the record say about IC50 for COc1cncnc1N(Cc1ccc(-c2noc(C(F)(F)F)n2)s1)c1cnccn1 ?
Response: ≤ 10000 nM

Request: So what does the record say about IC50 for CN(C)C1CN(C(=O)c2cnnc(N(Cc3ccc(-c4noc(C(F)(F)F)n4)s3)c3cnccn3)c2)C1 ?
Response: ≤ 10000 nM

Request: So what does the record say about IC50 for O=C(O)c1ccc(N(Cc2ccc(-c3noc(C(F)(F)F)n3)s2)c2cnccn2)nn1 ?
Response: ≤ 10000 nM

Request: So what does the record say about IC50 for FC(F)(F)c1nc(-c2ccc(CN(c3cnccn3)c3ccc4nccnc4n3)s2)no1 ?
Response: ≤ 1000 nM

Request: So what does the record say about IC50 for FC(F)(F)c1nc(-c2ccc(CN(c3cnccn3)c3ccc(-n4cccn4)nn3)s2)no1 ?
Response: ≤ 1000 nM

Request: So what does the record say about IC50 for FC(F)(F)c1nc(-c2ccc(CN(c3cnccn3)c3nccc4ncccc34)s2)no1 ?
Response: ≤ 10000 nM

Request: So what does the record say about IC50 for FC(F)(F)c1nc(-c2ccc(CN(c3cnccn3)c3ccc(N4CCOCC4)nn3)s2)no1 ?
Response: ≤ 1000 nM

Request: So what does the record say about IC50 for CC(c1ccc(-c2noc(C(F)(F)F)n2)s1)N(c1cnccn1)c1cnccn1 (stereo not shown) ?
Response: ≤ 500 nM

Request: So what does the record say about IC50 for COc1ncc(N(Cc2ccc(-c3noc(C(F)(F)F)n3)s2)c2cnccn2)nc1OC ?
Response: ≤ 10000 nM

Request: So what does the record say about IC50 for O=C(c1cnnc(N(Cc2ccc(-c3noc(C(F)(F)F)n3)s2)c2cnccn2)c1)N1CC2(COC2)C1 ?
Response: ≤ 1000 nM

---

Molecular target: Complex of human HDAC3 and human NCOR2 (Homo sapiens)
Construct: full length with C-terminal His tag, MW=49.7 kDa; His (C); host or cells: baculovirus expression system (co-expressed)
Sequence (O15379 whole entry): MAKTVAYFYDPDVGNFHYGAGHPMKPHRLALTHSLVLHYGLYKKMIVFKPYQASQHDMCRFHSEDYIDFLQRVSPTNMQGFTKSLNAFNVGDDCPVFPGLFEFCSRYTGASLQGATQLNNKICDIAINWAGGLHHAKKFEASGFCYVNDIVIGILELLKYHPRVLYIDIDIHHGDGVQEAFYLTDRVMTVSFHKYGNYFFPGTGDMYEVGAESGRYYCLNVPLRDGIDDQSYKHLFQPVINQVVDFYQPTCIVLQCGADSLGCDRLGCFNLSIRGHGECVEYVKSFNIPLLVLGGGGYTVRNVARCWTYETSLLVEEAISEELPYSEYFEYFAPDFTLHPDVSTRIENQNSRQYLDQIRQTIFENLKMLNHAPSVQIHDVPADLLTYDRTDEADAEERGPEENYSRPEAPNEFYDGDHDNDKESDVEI
Sequence (Q9Y618 395-489 partner limits assumed): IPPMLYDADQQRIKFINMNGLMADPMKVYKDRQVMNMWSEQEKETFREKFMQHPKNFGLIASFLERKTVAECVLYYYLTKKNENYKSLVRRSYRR
Assay: HDAC3 biochemical assay, AMC-labeled peptide substrate
Conditions: read-out: HDAC Isoform IC50 (nM) 3
Reported values of IC50 for individual entries

C[C@H]1CCCN1C(=O)c1cnnc(N(Cc2ccc(-c3noc(C(F)(F)F)n3)s2)c2cnccn2)c1 [Example GY]    > 10000 nM
NC(=O)c1ccc(N(Cc2ccc(-c3noc(C(F)(F)F)n3)s2)c2cnccn2)nn1 [Example DQ]    ≤ 10000 nM
FC(F)(F)c1cnnc(N(Cc2ccc(-c3noc(C(F)(F)F)n3)s2)c2cnccn2)c1 [Example EF]    > 10000 nM
FC(F)(F)c1nc(-c2ccc(CN(c3cnccn3)c3ncccn3)s2)no1 [Example AS]    > 10000 nM
O=C(c1cnnc(N(Cc2ccc(-c3noc(C(F)(F)F)n3)s2)c2cnccn2)c1)N1CC(O)(C(F)(F)F)C1 [Example GD]    ≤ 10000 nM
O=C(c1cnnc(N(Cc2ccc(-c3noc(C(F)(F)F)n3)s2)c2cnccn2)c1)N1CC2(COC2)C1 [Example FZ]    > 10000 nM
O=C(c1cnnc(N(Cc2ccc(-c3noc(C(F)(F)F)n3)s2)c2cnccn2)c1)N1CCC12COC2 [Example GF]    > 10000 nM
O=C(O)c1ccc(N(Cc2sc(-c3noc(C(F)(F)F)n3)cc2F)c2cnccn2)nn1 [Example EZ]    > 10000 nM

Request: Give IC50 (Complex of human HDAC3 and human NCOR2 (Homo sapiens)) of the following compound: FC(F)(F)c1nc(-c2ccc(CN(c3cncnc3)c3cnccn3)s2)no1 [Example CR]
Response: > 10000 nM

Request: Give IC50 (Complex of human HDAC3 and human NCOR2 (Homo sapiens)) of the following compound: FC(F)(F)c1nc(-c2ccc(CN(c3cnccn3)c3cc(N4CCOCC4)cnn3)s2)no1 [Example FP]
Response: > 10000 nM

Request: Give IC50 (Complex of human HDAC3 and human NCOR2 (Homo sapiens)) of the following compound: FC(F)(F)c1nc(-c2ccc(CN(c3cnccn3)c3cnc(N4CCOCC4)cn3)s2)no1 [Example BM]
Response: ≤ 10000 nM

Request: Give IC50 (Complex of human HDAC3 and human NCOR2 (Homo sapiens)) of the following compound: COc1nccnc1N(Cc1ccc(-c2noc(C(F)(F)F)n2)s1)c1cnccn1 [Example BF]
Response: > 10000 nM

Request: Give IC50 (Complex of human HDAC3 and human NCOR2 (Homo sapiens)) of the following compound: O=C(c1cnnc(N(Cc2ccc(-c3noc(C(F)(F)F)n3)s2)c2cnccn2)c1)N1C[C@@H]2C[C@H]1CO2 [Example FV]
Response: > 10000 nM

Request: Give IC50 (Complex of human HDAC3 and human NCOR2 (Homo sapiens)) of the following compound: O=C(c1cnnc(N(Cc2ccc(-c3noc(C(F)(F)F)n3)s2)c2cnccn2)c1)N1CCOCC1 [Example EB]
Response: > 10000 nM

Request: Give IC50 (Complex of human HDAC3 and human NCOR2 (Homo sapiens)) of the following compound: O=C(c1ccc(N(Cc2ccc(-c3noc(C(F)(F)F)n3)s2)c2cnccn2)nn1)N1CCC12COC2 [Example FH]
Response: ≤ 10000 nM

Request: Give IC50 (Complex of human HDAC3 and human NCOR2 (Homo sapiens)) of the following compound: CN(C(=O)c1cnnc(N(Cc2ccc(-c3noc(C(F)(F)F)n3)s2)c2cnccn2)c1)S(C)(=O)=O [Example GE]
Response: > 10000 nM

Request: Give IC50 (Complex of human HDAC3 and human NCOR2 (Homo sapiens)) of the following compound: O=C(c1cncc(N(Cc2ccc(-c3noc(C(F)(F)F)n3)s2)c2cnccn2)c1)N1CCOCC1 [Example GR]
Response: > 10000 nM

Request: Give IC50 (Complex of human HDAC3 and human NCOR2 (Homo sapiens)) of the following compound: FC(F)(F)c1nc(-c2ccc(CN(c3cnccn3)c3cc(N4CCCC4)cnn3)s2)no1 [Example FQ]
Response: > 10000 nM

Request: Give IC50 (Complex of human HDAC3 and human NCOR2 (Homo sapiens)) of the following compound: COC1CN(C(=O)c2ccc(N(Cc3ccc(-c4noc(C(F)(F)F)n4)s3)c3cnccn3)nn2)C1 [Example DR]
Response: ≤ 10000 nM

Request: Give IC50 (Complex of human HDAC3 and human NCOR2 (Homo sapiens)) of the following compound: O=C(c1cnnc(N(Cc2ccc(-c3noc(C(F)(F)F)n3)s2)c2cnccn2)c1)N1CCS(=O)(=O)CC1 [Example ED]
Response: > 10000 nM

Request: Give IC50 (Complex of human HDAC3 and human NCOR2 (Homo sapiens)) of the following compound: CC(=O)Nc1cnnc(N(Cc2ccc(-c3noc(C(F)(F)F)n3)s2)c2cnccn2)c1 [Example FM]
Response: > 10000 nM

Request: Give IC50 (Complex of human HDAC3 and human NCOR2 (Homo sapiens)) of the following compound: O=C(c1ccc(N(Cc2ccc(-c3noc(C(F)(F)F)n3)s2)c2cnccn2)nn1)N1CCCC1 [Example FI]
Response: ≤ 10000 nM

Request: Give IC50 (Complex of human HDAC3 and human NCOR2 (Homo sapiens)) of the following compound: O=C(c1ccc(N(Cc2ccc(-c3noc(C(F)(F)F)n3)s2)c2cnccn2)nn1)N1C[C@@H]2C[C@H]1C[S@@+]2[O-] [Example FR]
Response: ≤ 10000 nM

Data origin, for the record: patent US20210038607A1
